# test target: 5-hydroxytryptamine receptor 1B (Homo sapiens)
# Sequence (P28222 whole entry): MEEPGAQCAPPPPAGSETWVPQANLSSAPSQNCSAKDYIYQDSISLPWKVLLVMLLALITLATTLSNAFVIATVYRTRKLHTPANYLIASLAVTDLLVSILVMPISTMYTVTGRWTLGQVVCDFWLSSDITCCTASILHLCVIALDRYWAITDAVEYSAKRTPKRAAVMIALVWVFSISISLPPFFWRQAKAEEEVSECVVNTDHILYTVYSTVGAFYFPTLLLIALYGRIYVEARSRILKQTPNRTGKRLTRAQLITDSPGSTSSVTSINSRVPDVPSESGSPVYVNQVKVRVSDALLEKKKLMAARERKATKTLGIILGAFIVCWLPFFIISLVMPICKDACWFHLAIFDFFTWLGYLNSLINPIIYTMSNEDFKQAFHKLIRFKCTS
# test summary: Selectivity ratio against cloned human 5-HT1B receptor to that of h5-HT1D receptor
Known Selectivity of a selection of compounds

Reference set, count: 5
COc1ccc(NC(=O)N2CC=C(c3ccc4[nH]cc(C[C@H]5CCCN5C)c4c3)CC2)cc1    10
CN1CCC[C@@H]1Cc1c[nH]c2ccc(C3=CCN(/C(S)=N/C4CCCCC4)CC3)cc12    6.3
Cc1ccc(/N=C(\S)N2CC=C(c3ccc4[nH]cc(C[C@H]5CCCN5C)c4c3)CC2)cc1    3.9
CN1CCC[C@@H]1Cc1c[nH]c2ccc(C3=CCN(C(=O)NC4CCCCC4)CC3)cc12    4.6
CN1CCC[C@@H]1Cc1c[nH]c2ccc(C3=CCN(C(=O)Nc4ccccc4)CC3)cc12    11

Kindly indicate its recorded Selectivity. Item: COc1ccc(S(=O)(=O)N2CC=C(c3ccc4[nH]cc(C[C@H]5CCCN5C)c4c3)CC2)cc1
19

Give Selectivity for CN1CCC[C@@H]1Cc1c[nH]c2ccc(C3=CCN(/C(S)=N/c4ccc(Cl)cc4)CC3)cc12
2.7

Give the value of Selectivity reported for the following: CN1CCC[C@@H]1Cc1c[nH]c2ccc(C3=CCN(/C(S)=N/C45C[C@H]6C[C@@H](C4)C[C@@H](C5)C6)CC3)cc12
7
